# experiment.notes: soluble on expression in E. coli; label from the status in PepcDB or PDB records
observable: soluble on expression in E. coli

>  <residue.string>
GSAMRSAQVYRWQIPMDAGVVLRDRRLKTRDGLYVCLREGEREGWGEISPLPGFSQETWEEAQSVLLAWVNNWLAGDCELPQMPSVAFGVSCALAELTDTLPQAANYRAAPLCNGDPDDLILKLADMPGEKVAKVKVGLYEAVRDGMVVNLLLEAIPDLHLRLDANRAWTPLKGQQFAKYVNPDYRDRIAFLEEPCKTRDDSRAFARETGIAIAWDESLREPDFAFVAEEGVRAVVIKPTLTGSLEKVREQVQAAHALGLTAVISSSIESSLGLTQLARIAAWLTPDTIPGLDTLDLMQAQQVRRWPGSTLPVVEVDALERLL

>  <measured.value>
soluble

$$$$
>  <residue.string>
MPNVKDITRESWILSTFPEWGTWLNEEIEEEVVAEGNFAMWWLGNCGVWIKTPGGANVVMDLWSNRGKSTKKVKDMVRGHQMANMAGVRKLQPNLRAQPMVIDPFAINELDYYLVSHFHSDHIDINTAAAIINNPNLDHVKFVGPYECGEIWKKWGVPEERIIVIKPGESFEFKDIKVTAVESFDRTCLVTLPVDGAEEHDGELAGLAVTDEEMARKAVNYIFETPGGTIYHGADSHFSNYFAKHGKDYKIDVAINNYGDNPVGIQDKMTSIDLLRMAENLRAKVIIPVHYDIWSNFMASTDEILQLWKMRKERLQYDFHPFIWEVGGKYTYPQDKDRIEYHHPRGFDDCFEQESNIQFKALLMAGDPLEHHHHHH

>  <measured.value>
soluble

$$$$
>  <residue.string>
SAETEALSKLREDFRMQNKSVFILGASGETGRVLLKEILEQGLFSKVTLIGRRKLTFDEEAYKNVNQEVVDFEKLDDYASAFQGHDVGFCCLGTTRGKAGAEGFVRVDRDYVLKSAELAKAGGCKHFNLLSSKGADKSSNFLYLQVKGEVEAKVEELKFDRYSVFRPGVLLCDRQESRPGEWLVRKFFGSLPDSWARGHSVPVVTVVRAMLNNVVRPRDKQMELLENKAIHDLGKAHGSLKP

>  <measured.value>
soluble

$$$$
>  <residue.string>
MGSDKIHHHHHHMMQLQVNATEIKTVYEQQLFNGKNFHVFIYNKTESVTGLHQHDYYEFTLVLTGRYYQEINGKRVLLERGDFVFIPVGSNHQSFYEFGATRILNVGISKRFFEQHYLPLLPFCFVASQVYRANSTFLTYIETVIASLNFRGNGLDEFIEVVTFYIINRLRHYREEQVYDDIPQWLKATVEIMHDKTQFGEHALENMVRLSAKSQEYLTRATRRYYSKTPMQIINEIRINFAKKQLEMTNYSVTDIAYEAGYSSPSLFIKTFKKMTSFTPNSYRKRLTEINE

>  <measured.value>
not soluble

$$$$
>  <residue.string>
MGSDKIHHHHHHMSRLVVKNLTKIFSLGFFSKRRIEAVKNVSFEVKEKEIVSLVGESGSGKTTTAKMILRLLPPTSGEIYFEGKDIWKDIKDRESLVEFRRKVHAVFQDPFASYNPFYPVERTLWQAISLLENKPSNKKEALELIKESLFRVGIDPKDVLGKYPHQISGGQKQRIMIARCWILRPLLIVADEPTSMIDASSRGGIIKLLEELREEQGTSIIFITHDLGLAYYVSDNIFVMKNGEIVERGHPDKVVLEPTHEYTKLLVGSIPKLYRKLEDL

>  <measured.value>
not soluble

$$$$
>  <residue.string>
MGHHHHHHSHMAPKKAKKRAGGANSNVFSMFEQTQIQEFKEAFTIMDQNRDGFIDKNDLRDTFAALGRVNVKNEEIDEMIKEAPGPINFTVFLTMFGEKLKGADPEETILNAFKVFDPEGKGVLKADYVREMLTTQAERFSKEEVDQMFAAFPPDVTGNLDYKNLVHIITHGEEKD

>  <measured.value>
soluble

$$$$

###

# experiment.notes: soluble on expression in E. coli; label from the status in PepcDB or PDB records

>  <residue.string>
MGETKADFRDMSRIPKVREGFYATNNQFQKAGPKGFVQVKVLENDNLYVRVDLPGVPDDAVRYRVDAVRQKVVFFSGETLNNGKEGVRQYSGTAGLGCDCCEITGVDAKMKDGVLRMILTRVKVVSKAQDNNNNKCTLTVPPFTGQSGIRLEDHPCLVSGRKGALIGVTKAGGGAHFAVDMPGVSPDDVEVYADEKEIRFKAEIKDVYEHDESGRTYLGSVQSPFPALISNNTIAWDAEFGVLRIAVIPPDDMTTINNKRNPIE

>  <soluble on expression in E. coli>
soluble

$$$$
>  <residue.string>
AQEVLRRTPLYDFHLAHGGKMVAFAGWSLPVQYRDSHTDSHLHTRQHCSLFDVSHMLQTKILGSDRVKLMESLVVGDIAELRPNQGTLSLFTNEAGGILDDLIVTNTSEGHLYVVSNAGCWEKDLALMQDKVRELQNQGRDVGLEVLDNALLALQGPTAAQVLQAGVADDLRKLPFMTSAVMEVFGVSGCRVTRCGYTGEDGVEISVPVAGAVHLATAILKNPEVKLAGLAARDSLRLEAGLCLYGNDIDEHTTPVEGSLSWTLGKRRRAAMDFPGAKVIVPQLKGRVQRRRVGLMCEGAPMRAHSPILNMEGTKIGTVTSGCPSPSLKKNVAMGYVPCEYSRPGTMLLVEVRRKQQMAVVSKMPFVPTNYYTLK

>  <soluble on expression in E. coli>
soluble

$$$$

###

# experiment.notes: soluble on expression in E. coli; label from the status in PepcDB or PDB records
observable: soluble on expression in E. coli

>  <residue.string>
METPMHDEEESDSLNTSHLSDVELDDLVTTKFVEEFKNLKIADDSLEVVRDVGSPLNQALSPIERRNSDEFLLEDHPSLVRPIKDIFQRDEAMLLKNRILDASDEILKTNFMWNMFERSKKWRNTSHSSEVSLLDSLFQMVDRRPVLLHISCSRLTENDISCMIRKSLLDVAAQPRQKTVFRVTIKTEMPLKQFLGQLAMLLSTSPTIKFECAPVTALMKNLDGSMRKFYTAEVENFAEAELGLLSMSHLSPMNASARFKFTMNEKPFVTVNVGYHSNIDQCRRQKTIVIEQTVDGTVPARRVTFGFPLVSRVEEYELDEGLPFIPLRNSTKVFDLSQHFGNVQALPKVLDLKNIVFK

>  <observable>
soluble on expression in E. coli

>  <measured.value>
not soluble

$$$$
>  <residue.string>
MTVSEIRVRKINPRAKIPKRQSEGAAGYDIHSVESGRIPPNGRKSVRTGLAWDVPQSVVGLVFGRSGLALRNWIEVVETCVHPGEDKELVITLVNNGREVFEYEESSRIAQLVFVPVLSCEIDLVESLDLTERGCLGFGSTGMK

>  <observable>
soluble on expression in E. coli

>  <measured.value>
not soluble

$$$$

###

# experiment.notes: soluble on expression in E. coli; label from the status in PepcDB or PDB records
observable: soluble on expression in E. coli

>  <residue.string>
MGRNKEFDTALVLHRAIEVFGEYGYEGTSLQDLLSHLGIARQSLYDTYGTKRDLFLSAVKSYLEGKNAAVMERLEAPGSVKEAIRDIFQEGVNALRDPERAKACYIINSAIEQIPHDPELARYFERQSKQLEDAFYHGLLRAKDQGELNGEDTDISALARYLNQSRLSLTFIAKVTADMDRLQDHVDVSLSVLD

>  <measured.value>
soluble

$$$$
>  <residue.string>
MSLIEKLEEIFKKGSVTYYNSSYFFPKKIREDVTKLYAFVRVFDDLVDSVPQKIEEYYNLRKLYQLEKSGYNTGNIVLQNFVELARRKGFEDSWIDAFLDAMESDIYKKVYYSIEELLKYMYGSAEVVGLFMMKILDLHNDSMYYARMLGRAMQFLNFIRDVQEDLYLGRQYLPVEDMEKFGIDKMECNEGFIEFIRYEISRYFEFEREAEKGFKFIPARYLVPIKTASEMYKWSALRIKKSPCIVLSKKVKPRRTKIVITVIKNFAGVYLWRSLNPIEGHHHHHH

>  <measured.value>
soluble

$$$$
>  <residue.string>
NTYAPIETLKRLYSEAFRLPDVVGISIGTRIDSVNHEILDFLGEYAREKEVWIEYGIQSIHDRTLEGINRGHDSSEMEYWIKETQNRGIKVCVHLIYGLPGESEEMMLETLDKMIEWQAESIKIHPLYVMAHTALATLYKKGEYTPITLERYAWLIGESMKRIPK

>  <measured.value>
not soluble

$$$$
>  <residue.string>
MYQAVVFFDLDGTLMQDDKTVAASSVRAIQQLRANHVLPVIATGRNVFEVQDVMTTTGIDSIVSANGSYVAYQGQFLSAHELDKELLTDITHFANRQQNALAYYNNAGFALSHRDALTTSNYRALRQTARVAPHFYEHQHINFLLTFDPLNAAQYRQRYRGRLHFVRNNPRALDTMQWGVSKAVGIQDILTKAHLTKVPTYAFGDQLNDIEMFRMIQTPIAMGNGHPQVKQLARYVTADNMHGGIAQGLQHFDLI

>  <measured.value>
not soluble

$$$$
